Target: α-glucosidase from yeast
Experiment: α-Glucosidase inhibition assay
Settings: substrate maltose 0.5 mM, pH 6.8, 37 °C; mean ± SD of three independent experiments; read-out: IC50 against α-glucosidase from yeast
Method: α-Glucosidase activity was assayed by the method reported, with minor modifications. […] The reaction mixture contained 150 μL of enzyme solution, 150 μL of inhibitor, and 150 μL of substrate (maltose). The substrate and α-glucosidase (Baker’s yeast) were purchased from Sigma-Aldrich Chemical (St. Louis, MO, USA). […] The absorption at 505 nm was measured immediately and taken as the relative rate for the hydrolysis of the substrate. […]
Endpoint label: IC50

>  <Molecular string>
C[C@]1(O)C[C@@H]2[C@@H](O1)[C@H](O)[C@H](O)CN2Cc1ccccc1O

>  <IC50>
> 20 µM

$$$$

Query: Field request: IC50 | item: `C[C@]1(O)C[C@@H]2[C@@H](O1)[C@H](O)[C@H](O)CN2Cc1ccc(O)cc1Cl`
Response: 4.4 µM

Query: Field request: IC50 | item: `C[C@]1(O)C[C@@H]2[C@H](O1)[C@@H](O)[C@@H](O)CN2Cc1cccc(O)c1`
Response: 3.7 µM

Query: Field request: IC50 | item: `C[C@]1(O)C[C@@H]2[C@@H](O1)[C@H](O)[C@H](O)CN2Cc1ccc(O)c(F)c1`
Response: 5.4 µM
